protocol notes: Compressibility test (bulk/tapped density, Carr index, Hausner ratio)
Assay type: physicochemical
particulars: unit assumed
Measured Bulk density BD values are reported for all entries that follow.
Field note: include the unit after the figure.

| molecule | Bulk density BD |
| --- | --- |
| CC#C[C@@H](CC(=O)O)c1ccc(OCc2cccc(C3=CCC4(CC3)OCCO4)c2)cc1 [Crystal form I] | 0.381 g/mL |
| CC#C[C@@H](CC(=O)O)c1ccc(OCc2cccc(C3=CCC4(CC3)OCCO4)c2)cc1 [Crystal form II] | 0.136 g/mL |

Now consider the entry below.
Task item: Provide measured Bulk density BD value, entry: CC#C[C@@H](CC(=O)O)c1ccc(OCc2cccc(C3=CCC4(CC3)OCCO4)c2)cc1 [Amorphous form]
Reply: 0.353 g/mL
